System: SN12C
Assay: minimum viability across doses, drug + dasatinib, relative to DMSO (fraction); higher = less growth inhibition
Details: treatment: drug + dasatinib (fixed dose, not stated); 5 days
minimum viability across doses values, listed per item
Give the value as a plain number.

CC[C@H](CO)Nc1nc(NCc2ccccc2)c2ncn(C(C)C)c2n1 [Roscovitine (Seliciclib, CYC202)] + Cc1nc(Nc2ncc(C(=O)Nc3c(C)cccc3Cl)s2)cc(N2CCN(CCO)CC2)n1; 0.669

Asked: Supply measured minimum viability across doses of CN1CCN(CCOc2cc(OC3CCOCC3)c3c(Nc4c(Cl)ccc5c4OCO5)ncnc3c2)CC1 [Saracatinib (AZD0530)] + Cc1nc(Nc2ncc(C(=O)Nc3c(C)cccc3Cl)s2)cc(N2CCN(CCO)CC2)n1 in your reply.
Given back: 0.536
